system: biotin-Py24 (VEGF i-motif) (DNA, i motif) GACCCCGCCCCCGGCCCGCCCCGG; assay: SPR; conditions: 100 mM KCl; 20 mM MES pH 5.5, 0.05% Tween-20, 25 °C
measuredProperty: KD (µM)

- givenSmiles: "CC1(C)CC[C@]2(C(=O)NCc3cn([C@@H]4O[C@H](CO)[C@@H](O)[C@H](O)[C@H]4O)nn3)CC[C@]3(C)C(=CC[C@@H]4[C@@]5(C)CC[C@H](O)C(C)(C)[C@@H]5CC[C@]43C)[C@@H]2C1"
  unitsSymbol: "µM"
  KD: 12.0
- givenSmiles: "Cc1cn(CC(=O)NCCCNCCNCCCNC(=O)[C@]23CCC(C)(C)C[C@H]2C2=CC[C@@H]4[C@@]5(C)CC[C@H](O)C(C)(C)[C@@H]5CC[C@@]4(C)[C@]2(C)CC3)c(=O)[nH]c1=O"
  unitsSymbol: "µM"
  KD: 5.01
- givenSmiles: "CC1(C)CC[C@]2(C(=O)NCCc3c[nH]cn3)CC[C@]3(C)C(=CC[C@@H]4[C@@]5(C)CC[C@H](O)C(C)(C)[C@@H]5CC[C@]43C)[C@@H]2C1"
  unitsSymbol: "µM"
  KD: 12.1
- givenSmiles: "CC1(C)CC[C@]2(C(=O)NCc3cn(CCC(=O)O)nn3)CC[C@]3(C)C(=CC[C@@H]4[C@@]5(C)CC[C@H](O)C(C)(C)[C@@H]5CC[C@]43C)[C@@H]2C1"
  unitsSymbol: "µM"
  KD: 13.0

P. CC1(C)CC[C@]2(C(=O)NCc3cn(CCC#N)nn3)CC[C@]3(C)C(=CC[C@@H]4[C@@]5(C)CC[C@H](O)C(C)(C)[C@@H]5CC[C@]43C)[C@@H]2C1
Q. CC1(C)CC[C@]2(C(=O)NCc3cn(Cc4nc5ccccc5[nH]4)nn3)CC[C@]3(C)C(=CC[C@@H]4[C@@]5(C)CC[C@H](O)C(C)(C)[C@@H]5CC[C@]43C)[C@@H]2C1
Exam item: Could you tell me which of P and Q has the lower KD reading? Reply with the label of the item you choose.
Marked response: Q
(Q: 10.6 µM, P: 19.3 µM)

---

# reported KD; entries follow
system: biotin-Hairpin (duplex DNA) (DNA, hairpin, HEG (hexaethylene glycol) linker between 10 and 11) TATAGCTATATATAGCTATA; experiment: SPR; details: 100 mM KCl; 20 mM Tris-HCl pH 7.4, 25 °C; tested up to 50 μM

Solved entries:
- givenSmiles: "CC1(C)CC[C@]2(C(=O)N3CCN(c4ccccn4)CC3)CC[C@]3(C)C(=CC[C@@H]4[C@@]5(C)CC[C@H](O)C(C)(C)[C@@H]5CC[C@]43C)[C@@H]2C1"
  assayResult: "> 50 µM"
- givenSmiles: "CC1(C)CC[C@]2(C(=O)N3CCN(c4cccc(C(F)(F)F)c4)CC3)CC[C@]3(C)C(=CC[C@@H]4[C@@]5(C)CC[C@H](O)C(C)(C)[C@@H]5CC[C@]43C)[C@@H]2C1"
  assayResult: "> 50 µM"

We next turn to a different molecule, shown below.
Value of KD reported for the molecule CC1(C)CC[C@]2(C(=O)N3CCN(c4ccc(F)cc4F)CC3)CC[C@]3(C)C(=CC[C@@H]4[C@@]5(C)CC[C@H](O)C(C)(C)[C@@H]5CC[C@]43C)[C@@H]2C1 is > 50 µM
